Test system: CCRF-CEM leukemia
Experiment: NCI tumour cell line growth inhibition, 48 h

# COMPOUND, TARGET_SYSTEM, TGI
rows = [
    ("O=C(C[C@@H](C(=O)NCc1cccc(C(F)(F)F)c1)N1C(=O)[C@@H](N2C(=O)OC[C@@H]2c2ccccc2)[C@H]1/C=C/c1ccccc1)NC1CCN(Cc2ccccc2)CC1", "CCRF-CEM leukemia", "7.84 µM"),
    ("CSc1nc(NC2OC(COC(C)=O)C(OC(C)=O)C(OC(C)=O)C2OC(C)=O)c2c(OC(C)=O)c(C)c(=O)oc2n1 (configuration not stated)", "CCRF-CEM leukemia", "> 100 µM"),
    ("COc1ccc(/C(=N/Nc2ccc([N+](=O)[O-])cc2)Sc2cc(Cl)c(C)cc2S(N)(=O)=O)cc1", "CCRF-CEM leukemia", "33.9 µM"),
    ("CC(C)CCN=c1cc2n(-c3ccc(Cl)cc3)c3ccccc3nc-2cc1Nc1ccc(Cl)cc1", "CCRF-CEM leukemia", "> 91 µM"),
    ("C[C@]12CC[C@@H]3c4ccc(O)cc4CC[C@H]3[C@@H]1CC[C@@H]2NS(=O)(=O)c1ccc(C(F)(F)F)cc1", "CCRF-CEM leukemia", "9.8 µM"),
    ("C#CC[C@]12CC(=O)CC[C@H]1CC(=O)C2", "CCRF-CEM leukemia", "> 100 µM"),
    ("COc1ccc(OC(=O)O[C@H]2[C@H](O[C@H]3[C@@H](O)COC(O[C@H]4C[C@H]5[C@@H]6CC=C7C[C@@H](O)CC[C@]7(C)[C@H]6CC[C@]5(C)[C@H]4[C@H](C)C(=O)CCC(C)C)[C@@H]3OC(C)=O)OC[C@@H](O)[C@@H]2O)cc1 (some centres not stated)", "CCRF-CEM leukemia", "0.145 µM"),
]

====

# TGI per entry
Test system: UACC-62 melanoma
Assay: NCI tumour cell line growth inhibition, 48 h

# SMILES_TEXT, TGI
measured = [
    ("COc1cc(Cn2c(-c3ccccc3)cc3c2-c2oncc2CC3)cc(OC)c1OC", "77.5 µM"),
    ("O=C(CSc1nnc(Cc2ccccc2)o1)Nc1cccc([N+](=O)[O-])c1", "> 100 µM"),
    ("C[N+](C)(N)CCC[N+](C)(C)N", "> 100 µM"),
    ("CC(C)CSc1nc(Nc2ccccc2)c(C#N)c(-c2ccc(F)cc2)n1", "43.5 µM"),
    ("N#[O+].O=S(=O)([O-])[O-].[NH2-].[NH2-].[NH2-].[NH2-].[NH2-].[Ru+5]", "> 100 µM"),
    ("Cc1[nH]c(=O)[nH]c(=S)c1C(=O)NC(C)(CO)CO", "> 100 µM"),
]

====

System: RPMI-8226 leukemia
Experiment: NCI tumour cell line growth inhibition, 48 h

# COMPOUND, TARGET_SYSTEM, TGI
measured = [
    ("COc1cc2c3c(n(CCCBr)c(=O)c2cc1OC)-c1ccc(NC(C)=O)cc1C3=O", "RPMI-8226 leukemia", "27.2 µM"),
    ("N#CC1=C(N2CCCC2)NC(=O)CC1=O", "RPMI-8226 leukemia", "> 100 µM"),
    ("CCOC(=O)CC(NC(=O)c1nc[nH]c1[N+](=O)[O-])C(=O)OCC (centres undefined)", "RPMI-8226 leukemia", "> 100 µM"),
    ("CCSc1nc(N2CCOCC2)c2cn[nH]c2n1", "RPMI-8226 leukemia", "> 100 µM"),
    ("C=CCN1C(=O)/C(=C/c2ccccc2)NC1=S", "RPMI-8226 leukemia", "> 100 µM"),
    ("COc1ccc2cc(C(=O)/C=C/c3cccc(OC)c3OC)ccc2c1", "RPMI-8226 leukemia", "> 100 µM"),
    ("N#Cc1cnsc1", "RPMI-8226 leukemia", "> 100 µM"),
    ("COc1ccc(/C(=N/Nc2ccc([N+](=O)[O-])cc2)Sc2cc(Cl)c(C)cc2S(N)(=O)=O)cc1", "RPMI-8226 leukemia", "13.6 µM"),
    ("N#CCCN(CCC#N)c1ccc(C(=O)NN)cc1", "RPMI-8226 leukemia", "> 100 µM"),
    ("NC(N)=NC(N)=Nc1cc2ccccc2c2ccccc12", "RPMI-8226 leukemia", "26 µM"),
    ("CCc1cccc(C)c1NC(C)=O", "RPMI-8226 leukemia", "> 100 µM"),
    ("CC(=O)O[C@@H]1C=C(C)[C@H](CBr)O[C@@]2(C)CC[C@H](Br)C(C)(C)[C@H]12", "RPMI-8226 leukemia", "> 100 µM"),
    ("O=C(/C=C/c1ccccc1Cl)c1ccccc1Cl", "RPMI-8226 leukemia", "44.7 µM"),
    ("Cc1ccccc1Nc1cn(COCc2ccccc2)c(=O)[nH]c1=O", "RPMI-8226 leukemia", "> 100 µM"),
    ("c1ccc2c(c1)nc1n2CNCC1", "RPMI-8226 leukemia", "> 100 µM"),
    ("COc1ccc(-n2c(SCc3cc(OC)c(OC)c(OC)c3)nc3ccc(C)cc3c2=O)cc1", "RPMI-8226 leukemia", "50.9 µM"),
    ("N#Cc1nc(COCCOCc2ccccc2)oc1N", "RPMI-8226 leukemia", "> 100 µM"),
    ("O=[N+]([O-])C(C(Cl)=C(Cl)Cl)=C(N1CCOCC1)N1CCOCC1", "RPMI-8226 leukemia", "> 100 µM"),
    ("CC[C@H](C)[C@H](NC(=O)[C@H]1CCCCN1C)C(=O)N(C)[C@H](CCc1nc(C(=O)N[C@@H](Cc2ccccc2)C[C@H](C)C(=O)OC)cs1)C(C)C", "RPMI-8226 leukemia", "8.17 µM"),
    ("CCCCNC(=O)NS(=O)(=O)c1ccc(N2N=C(c3ccc(C)cc3C)CC2c2ccc(N(C)C)cc2)cc1 (centres undefined)", "RPMI-8226 leukemia", "9.66 µM"),
    ("CCC1(O)C(=O)OCc2c1cc1n(c2=O)Cc2cc3c(N)cccc3nc2-1 (centres undefined)", "RPMI-8226 leukemia", "0.879 µM"),
    ("COc1cc([N+](=O)[O-])ccc1NC(=O)C(F)(F)F", "RPMI-8226 leukemia", "> 100 µM"),
    ("COC(=O)CSc1n[nH]c(-c2ccc(O)c([N+](=O)[O-])c2)n1", "RPMI-8226 leukemia", "> 100 µM"),
    ("O=C(NCCCNC(=O)c1ccc2cc(O)c(O)cc2c1)c1ccc2cc(O)c(O)cc2c1", "RPMI-8226 leukemia", "> 100 µM"),
]
